Recorded values, source patent US20230212304A1.

Measured Kd, listed per entry.
Test Target: T1, recombinant human CTLA4-his protein (Acro biosystems, Cat#CT4-H5229) (human, UniProt P16410 37-162)
T1 construct: bought recombinant protein; not shown: his tag
T1 sequence (looked up): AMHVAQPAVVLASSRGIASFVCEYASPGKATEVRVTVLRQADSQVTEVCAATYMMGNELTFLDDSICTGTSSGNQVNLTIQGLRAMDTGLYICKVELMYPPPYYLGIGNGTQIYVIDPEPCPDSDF
Experiment Description: SPR, Biacore T200; antibody captured, CTLA4-his as analyte
Please state the figure in nM; there is no need to write the unit.

mouse anti-CTLA4 monoclonal antibody C1G4 (antibody, V domains shown, mouse mAb purified from hybridoma supernatant) VH: EVKLDETGGGLVQPGRPIKLSCVASGFTFSDNWMNWVRQSPEKGLEWVAQIRNKPYNYETYYSDSVKGRFTISRDDSKSSVYLQMNNLRTKDMGIYYCTGGFTYWGQGTLVTVSA VL: DIQMTQSPPSLSASVGETVTITCGASENIYGGLNWYQRKQGKSPQLLIYGATNLADGMSSRFSGSGSGRQYSLKISRLHPDDVATYYCQNVLNTPYTFGGGTKLEIK : 1.77
mouse anti-CTLA4 monoclonal antibody D1G6 (antibody, V domains shown, mouse mAb purified from hybridoma supernatant) VH: EVQLQQSGPELVKPGASVKLSCKASGNTFTTYVLNWVKQKPGQGLEWIGYFNPYNDAIKYNEKFKGKATLTSDKSSSTAYMELSSLTSEDSAVYYCARFEGGGYAMDYWGQGTSVTVSS VL: DIVLTQSPASLAVSLGQRATISCRASQSVGTSSYSYIHWYQQKPGQPPKLLIKYASDLESGVPARFSGSGSGTDFTLNIHPVEEEDTATYYCQHSWEIPYTFGGGTKLEIK : 9.06
mouse anti-CTLA4 monoclonal antibody D1B6 (antibody, V domains shown, mouse mAb purified from hybridoma supernatant) VH: EVQLQQSGPELVKPGASVKLSCKASGNTFTTYVLNWVKQKPGQGLEWIGYFNPYNDGIKYNEKFKGKATLTSDKSSNTAYMELSSLTSEDSAVYYCARFEGGGYAMDYWGQGTSVTVSS VL: DIVLTQSPASLAVSLGQRATISCRASQSVGTSRNTYIHWYQQKLGQPPKLLIKYASDLESGVPARFSGSGSGTDFTLNIHPVEEEDTATYYCQHSWEIPYTFGGGTKLEIK : 7.45
mouse anti-CTLA4 monoclonal antibody D1B8 (antibody, V domains shown, mouse mAb purified from hybridoma supernatant) VH: QIQLQQSGPELVKPGASVKISCKASGYTFTDYYINWVKQRPGQGLEWIGWIYPGNNNTRYNEKFKGKATLTIDTSSSTAFMHLSSLTSEDSAVYFCARYYFDYWGQGTTLTVSS VL: DIQMTQSPSSLSASLGERISLTCRASQEITGYLSWLQQKPDGTIKRLIYAASTLDSGVPQRFSGSRSGSDYSLTISSLESEDFADYYCLQYASYPRTFGGGTKLEIK : 2.24

Prompt line: For mouse anti-CTLA4 monoclonal antibody C1D1 (antibody, V domains shown, mouse mAb purified from hybridoma supernatant) VH: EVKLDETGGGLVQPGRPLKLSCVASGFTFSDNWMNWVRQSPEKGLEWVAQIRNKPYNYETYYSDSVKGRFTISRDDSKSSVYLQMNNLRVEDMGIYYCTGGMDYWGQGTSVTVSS VL: DIQMTQSPASLSASVGETVTITCGASEIIYGALNWYQQKQGKSPQLLIYGATNLADGMSSRFSGSGSGRQYSLKISSLHPDDAATYYCQKILSPPPWTFGGGTKLEIK , write its Kd.
Response line: 0.399

Prompt line: For mouse anti-CTLA4 monoclonal antibody D1A7 (antibody, V domains shown, mouse mAb purified from hybridoma supernatant) VH: QVTLKESGPGMLQPSQTLSLTCSFSGFSLSSSKLGVGWIRQPAGKGLEWLAHIWWNDDNYYVPSLKSRLTISKDTSNNQVFLKITNVDAADTATYYCVQVPYYTTQPWFAYWGQGTLVTVSA VL: DIQMTQSPASLSASVGETVTITCRASGNIHNYLAWYLQNQGRSPQLLVYNTETLADGVSSRFSGSGSGTQYFLKISSLQPEDFGTYYCQHLWSTPWTFGGGTKLEIK , write its Kd.
Response line: 2.41

Prompt line: For mouse anti-CTLA4 monoclonal antibody D1H3 (antibody, V domains shown, mouse mAb purified from hybridoma supernatant) VH: QVQLQQPGAELVNPGASVKLSCKASGYTFTSYWLHWVKQRPGRGLEWIGRIDPNRGTIYYNEKFNNKATVTVDKPSNTAYMQLSRLTLEDSAVYYCARGGSNFYAMDYWGQGTSVTVSS VL: DIQMTQSPASLSASVGETVTITCRTSENIYSYLAWYQQKQGESPQLLVYNAKTLAEGVPSRFSGSGSGTQFSLKINSLQPEDFGSYYCQNHDGIPFTFGSGTKLEIK , write its Kd.
Response line: 4.15

Prompt line: For mouse anti-CTLA4 monoclonal antibody D1D5 (antibody, V domains shown, mouse mAb purified from hybridoma supernatant) VH: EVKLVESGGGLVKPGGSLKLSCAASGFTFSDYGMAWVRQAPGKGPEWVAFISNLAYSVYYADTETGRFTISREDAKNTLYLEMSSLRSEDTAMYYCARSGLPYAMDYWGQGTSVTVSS VL: DIQMTQTTSSLSASLGDRVTISCRASQDISNYLNWYQQKPDGTVKLLIYYISRLHSGVPSRFSGSGSGTDFSLTISNLEQEDIATYFCQQGRMLPWTFGGGTRLEIK , write its Kd.
Response line: 1.89

Prompt line: For mouse anti-CTLA4 monoclonal antibody D2A4 (antibody, V domains shown, mouse mAb purified from hybridoma supernatant) VH: QVQLQQPGAELVKPGSSVNLSCKASGYTFTSYWVHWVKQGPGRGLEWIGRIDPNRGGTYYNENFKTKAALTVDSPSSTAYMHLSSLTSEDSAVYYCARGGLNYYALDYWGQGTSVTVSS VL: DIQMTQSPASLFASLGETVTITCRASENIYSYLAWYQQKQGKSPQLLVYNANTLTEGVPSSFSGSGSGTQFSLKINTLQPEDFGTYYCQHHYGIPFTFGSGTKLEIK , write its Kd.
Response line: 2.24

Prompt line: For mouse anti-CTLA4 monoclonal antibody D1H4 (antibody, V domains shown, mouse mAb purified from hybridoma supernatant) VH: EVQLQQSGPVLVKPGASVKMSCKASGYTFTDYYMNWVKQSHGKSLEWIGAINPDHGGSSYNQKFKGKATLTVDKSSSTAYMELNSLTSEDSAVYYCARDGSIHYVMDDWGQGTSVTVSS VL: DIVMSQSPSSLTVSAGDKVTMSCKSSQSLLHSGNQKNYLAWYQQKPWQPPKLLIYGASTRESGVPDRFTGSGSGTDFTLTISSVQAEDLAVYYCQNDYGYPYTFGGGTKLEIK , write its Kd.
Response line: 0.925
